Biological target: glucocorticoid receptor (Rattus norvegicus, UniProt P06536)
Construct: endogenous in cells
Sequence (P06536 whole entry): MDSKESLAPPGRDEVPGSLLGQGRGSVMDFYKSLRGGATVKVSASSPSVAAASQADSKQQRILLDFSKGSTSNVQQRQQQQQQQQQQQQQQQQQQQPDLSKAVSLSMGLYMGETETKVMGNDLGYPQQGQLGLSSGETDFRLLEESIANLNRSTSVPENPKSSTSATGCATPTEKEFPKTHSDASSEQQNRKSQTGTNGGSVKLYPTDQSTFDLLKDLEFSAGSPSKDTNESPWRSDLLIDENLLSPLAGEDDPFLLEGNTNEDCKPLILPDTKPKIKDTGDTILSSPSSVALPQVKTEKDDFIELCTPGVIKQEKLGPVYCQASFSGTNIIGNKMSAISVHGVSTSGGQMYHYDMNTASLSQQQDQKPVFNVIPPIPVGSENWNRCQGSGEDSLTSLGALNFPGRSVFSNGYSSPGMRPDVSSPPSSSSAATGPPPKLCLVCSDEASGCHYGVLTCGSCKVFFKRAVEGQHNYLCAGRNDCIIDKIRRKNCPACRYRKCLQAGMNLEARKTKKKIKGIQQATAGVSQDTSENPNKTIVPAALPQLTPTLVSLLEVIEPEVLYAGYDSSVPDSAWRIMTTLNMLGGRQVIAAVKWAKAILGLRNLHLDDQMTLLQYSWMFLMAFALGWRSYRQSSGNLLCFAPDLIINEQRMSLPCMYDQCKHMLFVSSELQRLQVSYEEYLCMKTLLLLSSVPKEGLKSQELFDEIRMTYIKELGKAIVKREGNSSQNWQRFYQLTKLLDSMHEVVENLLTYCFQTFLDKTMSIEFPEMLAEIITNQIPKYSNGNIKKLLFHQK
Experiment: competition for 3H-dexamethasone binding sites in HTC cytosol (glucocorticoid receptor affinity)
Conditions: Table 1; displacement of 25 nM 3H-DEX, HTC (rat hepatoma) cytosol, 3 hours on ice
measured attribute: pIC50
Just so you know, pIC50 here is -log10 of the concentration in molar units; reply with that number alone.

Look up pIC50: `CCC(=O)O[C@]1(C(=O)OC)[C@@H](C)C[C@H]2[C@@H]3CCC4=CC(=O)C=C[C@]4(C)[C@@]3(F)[C@@H](O)C[C@@]21C`
8.30

Look up pIC50: CCC(=O)O[C@]1(C(=O)OC)[C@H](C)C[C@H]2[C@@H]3CC(F)C4=C(F)C(=O)C=C[C@]4(C)[C@@]3(F)[C@@H](O)C[C@@]21C (stereo partly drawn)
9.60

Look up pIC50: CCCC(=O)O[C@]1(C(=O)OC)[C@@H](C)C[C@H]2[C@@H]3CC(F)C4=CC(=O)C=C[C@]4(C)[C@@]3(F)[C@@H](O)C[C@@]21C (stereo partly drawn)
9.60

Look up pIC50: CCC(=O)O[C@]1(C(=O)OC)[C@@H](C)C[C@H]2[C@@H]3CC(F)C4=C(F)C(=O)C=C[C@]4(C)[C@@]3(F)[C@@H](O)C[C@@]21C (stereo partly drawn)
7.82

Look up pIC50: CCC(=O)O[C@]1(C(=O)OC)[C@H](C)C[C@H]2[C@@H]3CC(F)C4=CC(=O)C=C[C@]4(C)[C@@]3(F)[C@@H](O)C[C@@]21C (stereo partly drawn)
8.40

Look up pIC50: CCCC(=O)O[C@]1(C(=O)OC)[C@H](C)C[C@H]2[C@@H]3CC(F)C4=CC(=O)C=C[C@]4(C)[C@@]3(F)[C@@H](O)C[C@@]21C (stereo partly drawn)
10.60
